target: butyrylcholinesterase from equine serum (Equus caballus, UniProt P81908); experiment: biochemical; details: equine serum BChE, Ellman's method
Sequence (P81908 whole entry): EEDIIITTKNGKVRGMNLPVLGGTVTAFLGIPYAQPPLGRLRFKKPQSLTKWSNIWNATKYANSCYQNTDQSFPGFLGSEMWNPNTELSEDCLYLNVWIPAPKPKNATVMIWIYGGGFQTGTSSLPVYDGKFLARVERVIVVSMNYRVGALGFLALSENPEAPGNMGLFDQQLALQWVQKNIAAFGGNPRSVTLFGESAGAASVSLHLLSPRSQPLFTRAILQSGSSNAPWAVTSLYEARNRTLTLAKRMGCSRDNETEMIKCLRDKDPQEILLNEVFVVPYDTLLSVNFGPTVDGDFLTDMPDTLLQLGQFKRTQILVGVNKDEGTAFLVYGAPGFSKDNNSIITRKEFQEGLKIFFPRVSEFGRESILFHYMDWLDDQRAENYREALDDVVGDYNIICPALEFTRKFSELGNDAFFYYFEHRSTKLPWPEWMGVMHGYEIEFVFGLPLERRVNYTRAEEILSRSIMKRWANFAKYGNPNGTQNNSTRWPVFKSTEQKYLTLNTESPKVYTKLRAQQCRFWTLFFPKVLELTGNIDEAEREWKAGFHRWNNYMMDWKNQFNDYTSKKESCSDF
measured metric: IC50

(Q) Which value of IC50 has been reported for `c1csc(CNc2ccc3ccc4sccc4c3c2)c1` in the records?
(A) ~32.3 µM
